# Tested on: MDA-MB-231 multicell spheroids, viability (%T/C)
# MEASUREMENT DESCRIPTION: Anticancer human tumor MDA-MB-231 cell line growth inhibition [IpAb];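 further: viability read after seven days of drug exposure; 100% = DMSO vehicle control viability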
# TEST CONDITIONS: second compound 0.316 µM; first compound 10 µM; stronger effect = lower value
For each entry below, report its viability, T/C value.
Expressed in %, but write only the number.

*Q* Given the entry Cn1nccc1Nc1nccc(-c2ccn(C(CO)c3ccc(Cl)c(F)c3)c(=O)c2)n1 (stereo unspecified) + CC(C)NCC(C(=O)N1CCN(c2ncnc3c2C(C)CC3O)CC1)c1ccc(Cl)cc1 , report its measured viability, T/C.
*A* 18

*Q* Same read-out for CC1(C)CCC(CN2CCN(c3ccc(C(=O)NS(=O)(=O)c4ccc(NCC5CCOCC5)c([N+](=O)[O-])c4)c(Oc4cnc5[nH]ccc5c4)c3)CC2)=C(c2ccc(Cl)cc2)C1 + CCN1CCN(Cc2ccc(Nc3ncc(F)c(-c4cc(F)c5nc(C)n(C(C)C)c5c4)n3)nc2)CC1 ?
*A* 7.02

*Q* Now give it for CC1(C)CCC(CN2CCN(c3ccc(C(=O)NS(=O)(=O)c4ccc(NCC5CCOCC5)c([N+](=O)[O-])c4)c(Oc4cnc5[nH]ccc5c4)c3)CC2)=C(c2ccc(Cl)cc2)C1 + CC(C)NCC(C(=O)N1CCN(c2ncnc3c2C(C)CC3O)CC1)c1ccc(Cl)cc1 too.
*A* 7.75

*Q* Entry CCCS(=O)(=O)Nc1ccc(F)c(C(=O)c2c[nH]c3ncc(-c4ccc(Cl)cc4)cc23)c1F + CCN1CCN(Cc2ccc(Nc3ncc(F)c(-c4cc(F)c5nc(C)n(C(C)C)c5c4)n3)nc2)CC1 please
*A* 23.4

*Q* Another molecule to look at: Cc1nc(NC(=O)N2CCCC2C(N)=O)sc1-c1ccnc(C(C)(C)C(F)(F)F)c1 (stereo unspecified) + CCN1CCN(Cc2ccc(Nc3ncc(F)c(-c4cc(F)c5nc(C)n(C(C)C)c5c4)n3)nc2)CC1
*A* 45.3

*Q* Also check Cn1nccc1Nc1nccc(-c2ccn(C(CO)c3ccc(Cl)c(F)c3)c(=O)c2)n1 (stereo unspecified) + CCN1CCN(Cc2ccc(Nc3ncc(F)c(-c4cc(F)c5nc(C)n(C(C)C)c5c4)n3)nc2)CC1
*A* 18.8
